Where do these numbers come from? They come from the supplement of paper PMC10065799.

# measuredOn: c-Src SH2
# methodSummary: SH2 binding enrichment of the phosphorylated peptide, bacterial display (enrichment ratio); higher = better substrate or ligand; peptides without Tyr show the background
valueType: SH2 binding enrichment

Worked examples, 3 sequences total:
>>> df
                      sequencerecord               valuetype  observedmeasurement
0           CKLYQYYLDHL [ATRX_Y1849]  SH2 binding enrichment                0.391
1  KEINDYVEKGT [SERPINA1_Y184_Q180E]  SH2 binding enrichment                0.461
2       PPTFRYERGSR [INPPL1_Y663_YF]  SH2 binding enrichment                0.336

P. HRFAAYFQQGD [GPI_Y351]
Q. MARDISRASYY [ALK_Y1278_Y1278S]
Input line: Which record shows the lower SH2 binding enrichment: the first, P , or the second, Q ? State the label of the item chosen.
Output line: Q
(Q: 0.433, P: 0.662)

* * *

# Test system: c-Abl (mouse)
# methodSummary: phosphorylation enrichment, bacterial display (enrichment ratio); higher = better substrate or ligand; peptides without Tyr show the background
Quick reference: phosphorylation enrichment of the listed items.
Answer with the value's number alone.

In [3]: df
Out[3]:
                       sequencerecord     measuredon                   valuetype  observedmeasurement
0             MDDPRYGMCPL [ZNF100_Y6]  c-Abl (mouse)  phosphorylation enrichment                 1.01
1       KATKGYLDDPT [G6PD_Y322_E317K]  c-Abl (mouse)  phosphorylation enrichment                0.451
2  APQFTYTQGGQ [FLNA_Y1763_A1764T_YF]  c-Abl (mouse)  phosphorylation enrichment                0.444
3      QCTSHYPEHVC [SART3_Y541_D540H]  c-Abl (mouse)  phosphorylation enrichment                0.585
4        DEDYLCREELA [POR_Y575_Y575C]  c-Abl (mouse)  phosphorylation enrichment                0.737
5       DVLEFCNSKKT [PAK1_Y131_Y131C]  c-Abl (mouse)  phosphorylation enrichment                0.532
6      EVTLTYATGIK [NFKB1_Y485_T489I]  c-Abl (mouse)  phosphorylation enrichment                 0.66
7    CTTIHYNFMCT [TP53_Y234_N239T_YF]  c-Abl (mouse)  phosphorylation enrichment                0.839
8       VPTSKYRGGGG [HBA1_Y141_L137P]  c-Abl (mouse)  phosphorylation enrichment                0.446
9       EPSLVYMVTKI [CPS1_Y768_D767V]  c-Abl (mouse)  phosphorylation enrichment                 0.89

Input line: Retrieve phosphorylation enrichment measured for SSEYHCVGGFY [CTSC_Y347_Y347C] and print it.
Output line: 7.61

Input line: Retrieve phosphorylation enrichment measured for WVYNHYRWFIW [BRCA2_Y2624_I2627F] and print it.
Output line: 0.777

Input line: Retrieve phosphorylation enrichment measured for FTRNFYVQAVL [CYBA_Y88_R90Q_YF] and print it.
Output line: 0.742

* * *

Quick reference: phosphorylation enrichment of the listed items.
# measuredOn: EPHB1 (UniProt P54762)
# Sequence (P54762 whole entry, looked up): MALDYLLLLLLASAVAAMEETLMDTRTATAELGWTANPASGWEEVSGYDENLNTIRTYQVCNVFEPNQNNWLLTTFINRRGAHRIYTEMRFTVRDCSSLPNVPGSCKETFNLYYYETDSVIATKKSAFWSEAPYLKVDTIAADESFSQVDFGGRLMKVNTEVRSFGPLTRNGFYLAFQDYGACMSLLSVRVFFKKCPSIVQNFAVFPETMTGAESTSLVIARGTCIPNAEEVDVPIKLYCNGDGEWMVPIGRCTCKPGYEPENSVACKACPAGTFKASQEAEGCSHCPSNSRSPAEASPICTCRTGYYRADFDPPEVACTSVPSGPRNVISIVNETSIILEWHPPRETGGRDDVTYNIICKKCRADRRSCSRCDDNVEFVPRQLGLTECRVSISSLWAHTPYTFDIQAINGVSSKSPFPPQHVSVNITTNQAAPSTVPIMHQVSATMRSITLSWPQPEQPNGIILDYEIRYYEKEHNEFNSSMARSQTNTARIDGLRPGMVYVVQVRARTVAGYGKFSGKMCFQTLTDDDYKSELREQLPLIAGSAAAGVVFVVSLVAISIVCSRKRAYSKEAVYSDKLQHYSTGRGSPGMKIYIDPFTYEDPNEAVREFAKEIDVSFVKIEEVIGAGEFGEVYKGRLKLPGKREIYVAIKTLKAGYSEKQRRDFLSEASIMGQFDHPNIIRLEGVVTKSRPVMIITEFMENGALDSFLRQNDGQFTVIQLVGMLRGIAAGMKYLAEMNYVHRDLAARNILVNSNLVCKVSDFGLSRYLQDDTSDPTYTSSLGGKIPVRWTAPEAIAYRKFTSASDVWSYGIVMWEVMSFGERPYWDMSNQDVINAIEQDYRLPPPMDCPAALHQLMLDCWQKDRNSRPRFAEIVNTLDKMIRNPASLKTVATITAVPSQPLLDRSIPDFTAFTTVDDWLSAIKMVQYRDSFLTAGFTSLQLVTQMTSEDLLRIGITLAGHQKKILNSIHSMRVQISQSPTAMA
# methodSummary: phosphorylation enrichment, bacterial display (enrichment ratio); higher = better substrate or ligand; peptides without Tyr show the background
Answer with the value's number alone.

Worked examples, 5 sequences total:
>>> print(df.to_string())
                   sequencerecord  observedmeasurement
0         RHSGSYLVTSV [APC_Y2838]                0.505
1  VMTLDYSKTVV [SETD2_Y770_V768L]                0.571
2       DFLEKYFKFGS [NNMT_Y24_YF]                0.525
3   HAVEDYQAIVD [CCT7_Y263_T259A]                 0.73
4   PLDGEHFTLQI [TP53_Y327_Y327H]                0.577

Input line: Retrieve phosphorylation enrichment measured for FKEDPYLVVNP [MCM6_Y810_E806K_YF] and print it.
Output line: 0.441

Input line: Retrieve phosphorylation enrichment measured for DSFATYFRRVL [H2BW1_Y84] and print it.
Output line: 0.607

Input line: Retrieve phosphorylation enrichment measured for DYYDLYGGEKF [PTPN11_Y66] and print it.
Output line: 6.42

Input line: Retrieve phosphorylation enrichment measured for FDNPVYQKTTE [LDLR_Y828] and print it.
Output line: 0.605

Input line: Retrieve phosphorylation enrichment measured for GKFHMYVAVWT [F13A1_Y161_R159H] and print it.
Output line: 0.491

Input line: Retrieve phosphorylation enrichment measured for EADRKYEEVAH [TPM3_Y163_R168H] and print it.
Output line: 0.587

Input line: Retrieve phosphorylation enrichment measured for KKGIVYVFNGR [ITGAV_Y404_I405V] and print it.
Output line: 0.458

* * *

# measuredOn: Grb2 SH2 (UniProt P62993)
# methodSummary: SH2 binding enrichment of the phosphorylated peptide, bacterial display (enrichment ratio); higher = better substrate or ligand; peptides without Tyr show the background
valueType: SH2 binding enrichment

In [3]: df
Out[3]:
                     sequencerecord                 measuredon  observedmeasurement
0  KDHLDYKFQPR [SOX9_Y172_P170L_YF]  Grb2 SH2 (UniProt P62993)                0.823
1     YRTPGYREVVI [TNS2_Y673_A670T]  Grb2 SH2 (UniProt P62993)                0.941
2   LSSVSYVGCSL [ADGRD1_Y571_I569V]  Grb2 SH2 (UniProt P62993)                0.798
3           ADARMYGVLPW [PLP1_Y207]  Grb2 SH2 (UniProt P62993)                 1.05
4          PEIIAYQPYGK [PRKCG_Y529]  Grb2 SH2 (UniProt P62993)                0.747

P. KLQKYYRKNPD [EHHADH_Y683_Q685K]
Q. YGAHKYHPLPV [OAT_Y55_N54K]
R. TEYIQYMRRKN [MAX_Y73]
Input line: Order field: SH2 binding enrichment | Direction: descending (largest first) The labels, placed in the requested order, form the answer.
Output line: Q, P, R

a. TGILLHGLASR [QARS1_Y57_Y57H]
b. LVMFIYAIFWM [SCN1A_Y1684_G1688W]
Input line: In the pair a and b , the larger recorded SH2 binding enrichment belongs to which? State the label of the item chosen.
Output line: b

* * *

# measuredOn: c-Src SH2
# methodSummary: SH2 binding enrichment of the phosphorylated peptide, bacterial display (enrichment ratio); higher = better substrate or ligand; peptides without Tyr show the background
valueType: SH2 binding enrichment

I. LRGEDCGFSVD [PRKCI_Y430_Y430C]
II. MSGDVYSTDFF [NTRK2_Y702_R699G_YF]
Input line: In the pair I and II , the larger recorded SH2 binding enrichment belongs to which? State the label of the item chosen.
Output line: I
(I: 0.841, II: 0.526)

P. HFPFQYHRQLF [F12_Y53_YF]
Q. APQFTYTQGGQ [FLNA_Y1763_A1764T_YF]
R. CTTIHYNFMCI [TP53_Y234_N239I_YF]
Input line: Order field: SH2 binding enrichment | Direction: descending (largest first) The labels, placed in the requested order, form the answer.
Output line: R, P, Q
(R: 1.72, P: 1.14, Q: 0.597)

* * *

# measuredOn: Hck (UniProt P08631)
# Sequence (P08631 whole entry, looked up): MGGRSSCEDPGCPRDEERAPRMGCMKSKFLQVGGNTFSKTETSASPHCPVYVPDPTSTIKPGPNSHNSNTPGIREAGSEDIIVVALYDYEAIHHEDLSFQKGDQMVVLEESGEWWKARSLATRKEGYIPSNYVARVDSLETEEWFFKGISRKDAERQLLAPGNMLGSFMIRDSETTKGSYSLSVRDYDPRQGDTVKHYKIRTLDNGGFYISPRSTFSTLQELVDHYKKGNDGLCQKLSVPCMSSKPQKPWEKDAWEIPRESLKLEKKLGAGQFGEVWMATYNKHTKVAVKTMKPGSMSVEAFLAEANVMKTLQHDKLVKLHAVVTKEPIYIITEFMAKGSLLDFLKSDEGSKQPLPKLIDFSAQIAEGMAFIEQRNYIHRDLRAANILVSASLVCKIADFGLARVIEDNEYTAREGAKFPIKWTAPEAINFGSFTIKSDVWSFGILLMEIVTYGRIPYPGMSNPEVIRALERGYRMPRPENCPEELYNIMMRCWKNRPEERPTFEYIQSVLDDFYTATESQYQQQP
# methodSummary: phosphorylation enrichment, bacterial display (enrichment ratio); higher = better substrate or ligand; peptides without Tyr show the background
Quick reference: phosphorylation enrichment of the listed items.
Answer with the value's number alone.

>>> print(df.to_string())
                     sequencerecord                   valuetype  observedmeasurement
0     SARFPYLMAEK [LDHB_Y173_R172P]  phosphorylation enrichment                0.422
1  NNFGNYNNQSS [HNRNPA1_Y318_D314N]  phosphorylation enrichment                0.354
2        PDDPNYSLVDD [PSTPIP2_Y323]  phosphorylation enrichment                 1.11
3  SENFTYIWWLN [PSG4_Y271_K267E_YF]  phosphorylation enrichment                0.559
4        KLFYIYTSGTT [SLC27A4_Y245]  phosphorylation enrichment                0.506

Input line: Retrieve phosphorylation enrichment measured for FEPWVYSLSYE [PRKDC_Y647_F649L] and print it.
Output line: 4.72

Input line: Retrieve phosphorylation enrichment measured for EKLIQYCQSKG [AKR1B1_Y199] and print it.
Output line: 0.446

Input line: Retrieve phosphorylation enrichment measured for LHSEAYLKFNE [PBRM1_Y1610_I1614N_YF] and print it.
Output line: 0.488

Input line: Retrieve phosphorylation enrichment measured for LNPLIYTLKNA [OR4C46_Y285] and print it.
Output line: 2.31
